- system: hHDAC8 (Homo sapiens)
- Sequence (Q9BY41 1-377): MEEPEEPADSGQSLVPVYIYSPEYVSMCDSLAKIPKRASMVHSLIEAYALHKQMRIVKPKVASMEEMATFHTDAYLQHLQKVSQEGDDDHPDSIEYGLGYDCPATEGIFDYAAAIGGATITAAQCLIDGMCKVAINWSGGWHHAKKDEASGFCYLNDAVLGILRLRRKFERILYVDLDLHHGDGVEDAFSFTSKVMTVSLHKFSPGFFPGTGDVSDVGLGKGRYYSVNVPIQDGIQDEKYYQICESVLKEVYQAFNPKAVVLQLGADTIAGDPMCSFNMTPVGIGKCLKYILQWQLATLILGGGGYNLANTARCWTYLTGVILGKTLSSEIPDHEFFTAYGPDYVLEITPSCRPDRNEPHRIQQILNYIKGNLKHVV
pIC50: −log10 of the molar value.
Classify as follows. Reported pIC50 greater than or equal to 6: 1. Reported pIC50 below: -1.

Before answering, review these 4 worked examples.
[[record]]
molecule = "O=C(/C=C/C1CCN(Cc2cccc3ccccc23)CC1)NO [10c]"
class = 1

[[record]]
molecule = "O=C(/C=C/C1CCN(CCc2c[nH]c3ccccc23)CC1)NO [10b]"
class = 1

[[record]]
molecule = "O=C(/C=C/C1CCN(CCc2ccccc2)CC1)NO [10a]"
class = 1

[[record]]
molecule = "CN1CCN(Cc2ccc(C(=O)NO)cc2)CC1"
class = -1


Then this molecule:
Record O=C(/C=C/C1CCN(Cc2cccc(Cl)c2)CC1)NO [10d] ; criterion: pIC50 no lower than 6. Met?
-1
